Entry source: PubChem BioAssay

method: modulators of AGP1-GFP expression in yeast TOR pathway, primary screen, cell-based, multiplex flow cytometry, S. cerevisiae (AID 1887)
condition.summary: 3 h, at 10 µM, active compounds read high
Inconclusive results are not listed.
Would you kindly list GFP response, % of DMSO for each of these compounds?
Numbers only here, please. The scale is %.

Consider the compound O=c1[nH]c2ccccc2n1CCCN1CCC(n2c(=O)[nH]c3cc(Cl)ccc32)CC1 and give its measured GFP response, % of DMSO.
101

Requested field: GFP response, % of DMSO. Item: COc1cccc(Oc2c(C)oc3cc(OC(=O)N(C)C)ccc3c2=O)c1
99.4

Which value of GFP response, % of DMSO has been reported for C[C@H]1CCC/C=C/C2C[C@H](O)CC2[C@H](O)/C=C/C(=O)O1 (some centres undefined) in the records?
102

Requested read-out: GFP response, % of DMSO. Entry: C[N+]1(C)C2CCC1CC(OC(=O)C(CO)c1ccccc1)C2 (centres undefined)
105

What measured GFP response, % of DMSO goes with OC(c1ccccc1)(c1ccccc1)C1CCNCC1 ?
103

Report GFP response, % of DMSO for CCNC(=S)N(C)CCc1cc2c(c(OC)c1C=C1C(=O)N(C)C(=O)N(C)C1=O)OCO2 please.
96.1

Given [N-]=[N+]=CC(=O)OC[C@H](N)C(=O)O , state its recorded GFP response, % of DMSO.
110

So what does the record say about GFP response, % of DMSO for COc1ccc(OC)c([C@@H](O)[C@H](C)NC(C)(C)C)c1 ?
88.8

Need GFP response, % of DMSO, item C[N+]1(C)CCN(c2ccccc2)CC1
96.6

Recorded GFP response, % of DMSO for CN1C(=O)CN=C(c2ccc(Cl)cc2)c2cc(Cl)ccc21 , please?
92.2

# input compound: COc1ccc(C(=O)N2CCCC2=O)cc1 ; wanted: its GFP response, % of DMSO
117

Param item = O=c1cccc2n1C[C@H]1C[C@@H]2CN2CCCC[C@@H]12 ; retrieve measured GFP response, % of DMSO.
98.1

Which GFP response, % of DMSO is reported for this compound? CC(C)CCC1(CN2CCCC2=O)C(=O)NC(=O)NC1=O
101

# lookup: GFP response, % of DMSO of O=Cc1cn(Cc2ccc(F)cc2)c2ccccc12
102

Give its GFP response, % of DMSO value. Item: Nc1ccncc1
99.6

Name the reported GFP response, % of DMSO value associated with the compound C[C@H]1CCC[C@H](O)CCCCCc2cc(O)cc(O)c2C(=O)O1
105

Field request: GFP response, % of DMSO | item: Cc1ccc(/C=C2/C(=O)NC(=O)N(C)C2=O)cc1
93.6

I would be grateful if you could share the reported GFP response, % of DMSO for CN[C@H]1C[C@H]2O[C@@](C)([C@H]1OC)n1c3ccccc3c3c4c(c5c6ccccc6n2c5c31)C(=O)NC4 .
90.8

Fill blank: measured GFP response, % of DMSO of the compound CCNC(=O)[C@H]1O[C@@H](n2cnc3c(N)ncnc32)[C@H](O)[C@@H]1O is ____.
91.5

Fill in: GFP response, % of DMSO of C[N+]1(C)CCOC(O)(c2ccc(-c3ccc(C4(O)C[N+](C)(C)CCO4)cc3)cc2)C1 (centres undefined) is ___
88

Given the entry O=C(O)CCCc1ccc(N(CCCl)CCCl)cc1 , report its measured GFP response, % of DMSO.
97.6

Returns the measured GFP response, % of DMSO for the input compound. Input: O=C1NC(=O)C2(Cc3ccccc3N3CCCC32)C(=O)N1c1ccc(Cl)cc1 (centres undefined)
97.5

Form field: reported GFP response, % of DMSO of Cc1cc(OCc2cc(C(=O)O)oc2C)c2c3c(c(=O)oc2c1)CCCC3
101

I would be grateful if you could share the reported GFP response, % of DMSO for C[C@@H]1O[C@@H](O[C@H]2C[C@@H](O)[C@]3(CO)[C@H]4[C@H](O)C[C@]5(C)[C@@H](C6COC(=O)C6)CC[C@]5(O)[C@@H]4CC[C@]3(O)C2)[C@H](O)[C@H](O)[C@H]1O (some centres undefined) .
119

GET /values?readout=GFP response, % of DMSO&item= C[C@@H]1O[C@@H](O[C@H]2C[C@@H](O)[C@]3(CO)[C@H]4[C@H](O)C[C@]5(C)[C@@H](C6=CC(=O)OC6)CC[C@]5(O)[C@@H]4CC[C@]3(O)C2)[C@H](O)[C@H](O)[C@H]1O
116

Would you mind telling me what GFP response, % of DMSO value was observed for NC(=O)CN1CCCC1=O ?
91

Return reported GFP response, % of DMSO; argument: CCC1(c2ccccc2)C(=O)N(COC)C(=O)N(COC)C1=O
112

Entry OCc1cnc[nH]1 : reported GFP response, % of DMSO = ?
99.4

What value of measured GFP response, % of DMSO is listed for c1ccc2c3c([nH]c2c1)CNCC3 ?
105

So what does the record say about GFP response, % of DMSO for CN[C@H](C)[C@H](O)c1ccccc1 ?
101

// GFP response, % of DMSO lookup, key: Cc1cc(Cl)ccc1OCC(=O)O
103

Looking for the measured GFP response, % of DMSO of c1ccc2c(c1)[nH]c1cnccc12 , can you help?
95.9

Suppose we examine the compound CC(C)C(=O)Nc1ccc(S(=O)(=O)N2CC3CC(C2)c2cccc(=O)n2C3)cc1 (centres undefined) ; what GFP response, % of DMSO value has been reported?
93.1

Can you look up the measured GFP response, % of DMSO of CC(=O)c1ccc(-c2ccccc2)cc1 for me?
103

Data request, read-out GFP response, % of DMSO, for O=C1CCCC2=C1C(c1cccnc1)Nc1ccccc1N2 (centres undefined)
107

Which GFP response, % of DMSO is reported for this compound? Cc1cc(Cl)ccc1OC(C)C(=O)O (centres undefined)
87.3

Looking for the measured GFP response, % of DMSO of CC1CCC[C@H](O)CCCCCc2cc(O)cc(O)c2C(=O)O1 (some centres undefined) , can you help?
109

// returns reported GFP response, % of DMSO for input O=C1CC[C@@]2(O)[C@H]3Cc4ccc(O)c5c4[C@@]2(CCN3CC2CC2)[C@H]1O5
96.1

Report GFP response, % of DMSO for C#CCN(C)C(C)Cc1ccccc1 (centres undefined) please.
102

// lookup GFP response, % of DMSO for CN1C(=O)N(C)C(=O)C2(Cc3ccccc3N3CCOCC32)C1=O (centres undefined)
99.9

Quick check: GFP response, % of DMSO of C[C@]12CCC(=O)C=C1CC[C@@H]1[C@@H]2CC[C@]2(C)C(=O)CC[C@@H]12 ?
84.2

Return reported GFP response, % of DMSO; argument: CN1C[C@H](CNC(=O)OCc2ccccc2)C[C@@H]2c3cccc4c3c(cn4C)C[C@H]21
108

# input compound: Cc1ccc(-n2c(C)cc(/C=C3/C(=O)NC(=O)N(C)C3=O)c2C)cc1 ; wanted: its GFP response, % of DMSO
106

Which GFP response, % of DMSO is listed for O=c1c2ccccc2nc(/C=C/c2ccc3c(c2)OCO3)n1-c1ccccc1 ?
98.9

###

target.system: Lethal factor (Bacillus anthracis) (UniProt P15917)
method: Lethal factor protease inhibitors, Bacillus anthracis, multiplex microsphere cleavage assay, validation set (AID 588461)
condition.summary: flow cytometry, at 10 µM
Activity calls are given as the source filed them. The rule behind the calls is not given here.
Hello, when you answer, please use one of the following outcomes: active, inactive

For this compound, state the assay outcome: O=Cc1ccc(O)c(O)c1
inactive

Field: outcome | Entry: COCCN(CCOC)Cc1c(C)[nH]c2c(C)c(C)ccc2c1=O
inactive

Name the outcome recorded for CC(NC(=O)c1cccnc1)C(=O)O (stereo unspecified) in the assay.
inactive

Dear all, I need the recorded test outcome for Cc1oc2cc(O)cc(O)c2c(=O)c1-c1ccc2c(c1)OCCCO2 , thank you.
inactive

Recorded call for Cc1c(OCC(F)(F)F)ccnc1CS(=O)c1nc2ccccc2[nH]1 (stereo unspecified) ?
inactive

Recorded call for COc1ccc(NC2=C(Cl)C(=O)N(c3ccccc3)C2=O)c(OC)c1 ?
inactive

Record lookup: outcome of this test for CN1[C@@H](CC(=O)c2ccccc2)CCC[C@H]1C[C@H](O)c1ccccc1 ?
inactive

Hello, I am checking results. What call was entered for Cc1ccc(S(=O)(=O)NC(C(=O)Oc2cc3oc(=O)cc(C)c3cc2Cl)C(C)C)cc1 (stereo unspecified) ?
inactive

# fetch the recorded call for CCc1cccc2c1NC1(CCCC1)CC2C (stereo unspecified) here
active

Could you please tell me the result logged for CC1CCCC(C)N1NC(=O)c1ccc(Cl)c(S(N)(=O)=O)c1 (stereo unspecified) in this assay?
inactive

Which outcome was entered for the compound CN1CCCN=C1COC(=O)C(O)(c1ccccc1)C1CCCCC1 (stereo unspecified) in this test?
inactive
